B1: Zyxin (Homo sapiens), Q15942 (parent)
chain: MAAPRPSPAISVSVSAPAFYAPQKKFGPVVAPKPKVNPFRPGDSEPPPAPGAQRAQMGRVGEIPPPPPEDFPLPPPPLAGDGDDAEGALGGAFPPPPPPIEESFPPAPLEEEIFPSPPPPPEEEGGPEAPIPPPPQPREKVSSIDLEIDSLSSLLDDMTKNDPFKARVSSGYVPPPVATPFSSKSSTKPAAGGTAPLPPWKSPSSSQPLPQVPAPAQSQTQFHVQPQPQPKPQVQLHVQSQTQPVSLANTQPRGPPASSPAPAPKFSPVTPKFTPVASKFSPGAPGGSGSQPNQKLGHPEALSAGTGSPQPPSFTYAQQREKPRVQEKQHPVPPPAQNQNQVRSPGAPGPLTLKEVEELEQLTQQLMQDMEHPQRQNVAVNELCGRCHQPLARAQPAVRALGQLFHIACFTCHQCAQQLQGQQFYSLEGAPYCEGCYTDTLEKCNTCGEPITDRMLRATGKAYHPHCFTCVVCARPLEGTSFIVDQANRPHCVPDYHKQYAPRCSVCSEPIMPEPGRDETVRVVALDKNFHMKCYKCEDCGKPLSIEADDNGCFPLDGHVLCRKCHTARAQT

Variants of: B1
Applied Conditions: with actn1_human ACTN1, P12814
Sequence (P12814 whole entry): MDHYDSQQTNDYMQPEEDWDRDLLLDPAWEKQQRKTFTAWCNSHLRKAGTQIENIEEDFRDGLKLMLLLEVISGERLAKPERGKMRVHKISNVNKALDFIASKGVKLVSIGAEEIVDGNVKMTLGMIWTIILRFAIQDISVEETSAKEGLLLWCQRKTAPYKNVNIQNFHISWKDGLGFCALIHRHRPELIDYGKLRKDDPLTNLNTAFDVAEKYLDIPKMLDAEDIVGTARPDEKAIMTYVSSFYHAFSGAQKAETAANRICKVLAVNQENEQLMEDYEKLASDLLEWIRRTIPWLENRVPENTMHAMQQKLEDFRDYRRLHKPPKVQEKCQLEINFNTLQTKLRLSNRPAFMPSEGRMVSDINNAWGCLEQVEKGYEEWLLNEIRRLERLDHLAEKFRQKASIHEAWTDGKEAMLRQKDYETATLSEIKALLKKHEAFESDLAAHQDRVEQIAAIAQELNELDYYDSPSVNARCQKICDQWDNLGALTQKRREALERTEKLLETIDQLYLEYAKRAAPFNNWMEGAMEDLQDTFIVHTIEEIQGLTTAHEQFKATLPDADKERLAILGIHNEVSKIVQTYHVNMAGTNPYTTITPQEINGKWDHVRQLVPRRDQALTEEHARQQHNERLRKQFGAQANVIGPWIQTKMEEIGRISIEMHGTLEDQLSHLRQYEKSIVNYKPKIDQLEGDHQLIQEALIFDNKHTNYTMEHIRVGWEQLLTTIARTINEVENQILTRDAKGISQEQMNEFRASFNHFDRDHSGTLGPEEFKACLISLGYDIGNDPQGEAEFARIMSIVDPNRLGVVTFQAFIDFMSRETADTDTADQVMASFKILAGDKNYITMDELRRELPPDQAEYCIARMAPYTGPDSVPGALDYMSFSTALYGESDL
Quantity Measured: effect of a mutation on the interaction

* A31S | decreasing interaction
* V29S | decreasing interaction
* F26S | decreasing interaction

The measurements presented in this section are drawn from IntAct's records for PubMed 11423549.
